# Test system: MES-SA
# MEASUREMENT DESCRIPTION: relative viability vs DMSO control (72 h) (fraction); higher = more viable cells
# CONDITIONS USED: 0.04115 µM
OUTCOME MEASURE: relative viability

// solved cases for relative viability follow
CO[C@H]1C[C@@H]2CC[C@@H](C)[C@@](O)(O2)C(=O)C(=O)N2CCCC[C@H]2C(=O)O[C@H]([C@H](C)C[C@@H]2CC[C@@H](OP(C)(C)=O)[C@H](OC)C2)CC(=O)[C@H](C)/C=C(\C)[C@@H](O)[C@@H](OC)C(=O)[C@H](C)C[C@H](C)/C=C/C=C/C=C/1C 0.403
C[C@]1(O)C[C@@H](c2nc(-c3ccc4ccc(-c5ccccc5)nc4c3)c3c(N)nccn32)C1 0.943
COc1cc2/c(=N/c3ccc(Br)cc3F)nc[nH]c2cc1OCC1CCN(C)CC1 0.907
Cn1cnc2c(F)c(Nc3ccc(Br)cc3F)c(C(=O)NOCCO)cc21 0.84
CC(C)N1CCN(Cc2cnc(-c3cc(-c4cccc5[nH]ccc45)cc4[nH]ncc34)o2)CC1 0.926
C[C@@H](c1ccc2nccn2c1)n1nnc2ncc(-c3cnn(C)c3)nc21 0.957

Need relative viability for each of these compounds.
1. Cn1cc(-c2cc3c(N4CCN(c5ncc([C@@](C)(N)c6ccc(F)cc6)cn5)CC4)ncnn3c2)cn1
2. Cc1cc(C)c(/C=C2\C(=O)Nc3ccccc32)[nH]1

Response:
1. 0.902
2. 0.861
